STUDY TARGET: T1, human Claudin18.2 (CLDN18.2) (human, UniProt P56856 1-261)
T1 construct: the cell line is named under assay; also called human Claudine18.2; hClaudin18.2
TEST: FACS on CHOK1-18.2 cells
pEC50: −log10 of the molar value.
# pEC50 per record follows
ENDPOINT: pEC50

binder="chAb06 (antibody, V domains shown) VH: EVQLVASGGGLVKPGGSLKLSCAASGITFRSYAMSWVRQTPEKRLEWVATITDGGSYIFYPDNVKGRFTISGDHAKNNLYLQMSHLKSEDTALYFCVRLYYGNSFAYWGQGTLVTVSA VL: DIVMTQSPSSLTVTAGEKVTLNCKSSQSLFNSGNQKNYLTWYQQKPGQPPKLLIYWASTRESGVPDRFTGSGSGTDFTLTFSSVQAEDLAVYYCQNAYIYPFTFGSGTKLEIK" endpoint=pEC50 recorded_measurement=8.27
binder="chAb18 (antibody, V domains shown) VH: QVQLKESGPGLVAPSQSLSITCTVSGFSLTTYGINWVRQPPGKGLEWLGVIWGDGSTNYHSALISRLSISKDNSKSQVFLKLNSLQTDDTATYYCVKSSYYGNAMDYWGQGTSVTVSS VL: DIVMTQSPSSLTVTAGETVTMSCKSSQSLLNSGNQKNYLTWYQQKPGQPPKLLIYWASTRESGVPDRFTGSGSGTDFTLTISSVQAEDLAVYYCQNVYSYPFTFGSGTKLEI" endpoint=pEC50 recorded_measurement=8.11
